- Tested on: (GGGGCC)66-expressing SK-N-MC cells
- PROTOCOL_DETAILS: LDH cytotoxicity assay, (GGGGCC)66-induced cell death
- Type: cell-based
- CONDITION_CONTEXT: 48 h, concentration reducing LDH enzyme activity by 50% vs untreated control, read-out: IC50 in suppressing (GGGGCC)66-induced cell death
No end group written: not given here.
READOUT: IC50
In your response, put the unit directly after the numeric value.

YGRKKRRQRRRAEIRLVSKDGKSKGIAYIEFK [TAT-P3L] yielded IC50 of 0.104 µM

Numbers sourced from patent US11197911B2.
